- Test system: phosphorylation of pRb at the Ser780 site in JeKo-1 mantle cell lymphoma cells
- ASSAY COMMENT: CDK4 cellular assay: ELISA of pRb phosphorylation at Ser780 in JeKo-1 cells
- Type: cell-based
- CONDITION PARAMETERS: Homo sapiens; JeKo-1 cells, p-pRb Ser780 ELISA, non-normalized; read-out: Cellular ppRb inhibition IC50
Quick reference for pIC50 among some molecules
Give only the number. pIC50 is defined as minus log10 of concentration in molar units.

MOLECULE	STUDY SYSTEM	READOUT NUMBER
CN1CC2(C)CN(C(=O)c3ccc(Nc4ncc5cc(C(=O)N(C)C)n(C6CCCC6)c5n4)nc3)CC(C)(C1)C2O (stereo not shown) [Example 39]	phosphorylation of pRb at the Ser780 site in JeKo-1 mantle cell lymphoma cells	7.10
CN(C)C(=O)c1cc2cnc(Nc3ccc(C(=O)N4CCC5(CC4)CNC5)cn3)nc2n1C1CCCCCC1 [Example 5]	phosphorylation of pRb at the Ser780 site in JeKo-1 mantle cell lymphoma cells	6.94

Please look at the following molecule next.
Which pIC50 is reported for this molecule? CN(C)C(=O)c1cc2cnc(Nc3ccc(N4CCN5CCCCC5C4=O)cn3)nc2n1C1CCCCC1 (stereo not shown) [Example 100]
6.73

---

- Test system: phosphorylation of pRb at the Ser780 site in JeKo-1 mantle cell lymphoma cells
- ASSAY COMMENT: CDK4 cellular assay: ELISA of pRb phosphorylation at Ser780 in JeKo-1 cells
- Assay type: cell-based
- CONDITION PARAMETERS: Homo sapiens; JeKo-1 cells, p-pRb % inhibition adjusted with total pRb levels; read-out: Normalized cellular ppRb inhibition IC50
- Experimental: Cell-based assay measuring phosphorylation levels of pRb at the Ser780 site using an enzyme-linked immunosorbent assay (ELISA) method (Table 6). […] Plates were incubated overnight at 4° C. with rocking. […] After incubation, 50 μL 2 M sulfuric acid were added to plates to top the reaction, and absorbance was determined on a SpectraMax (Molecular Devices, Sunnydale, Calif.) within 15 minutes at 450 nm. […]
pIC50: −log10 of the molar value.
We use 7 as the dividing line for pIC50: on or above the line is T, below is F.

Textbook exercise: given the entry CN(C)C(=O)c1cc2cnc(Nc3ccc(N4CC5CCC(C4)N5)cn3)nc2n1C1CCCC1 [Example 112] , state whether its pIC50 is greater than or equal to 7.
F

---

- STUDY SYSTEM: CDK4/cyclin D1 (Homo sapiens (Human), UniProt P11802)
- Sequence (P11802 whole entry): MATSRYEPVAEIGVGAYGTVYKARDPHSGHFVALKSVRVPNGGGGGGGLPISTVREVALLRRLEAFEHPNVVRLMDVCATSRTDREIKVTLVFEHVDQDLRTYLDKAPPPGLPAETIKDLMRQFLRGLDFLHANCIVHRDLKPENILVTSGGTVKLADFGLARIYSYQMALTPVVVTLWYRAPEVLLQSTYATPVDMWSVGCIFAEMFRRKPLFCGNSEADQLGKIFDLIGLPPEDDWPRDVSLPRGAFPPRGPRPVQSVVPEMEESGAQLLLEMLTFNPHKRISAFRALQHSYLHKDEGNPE
- Sequence (P24385 whole entry partner): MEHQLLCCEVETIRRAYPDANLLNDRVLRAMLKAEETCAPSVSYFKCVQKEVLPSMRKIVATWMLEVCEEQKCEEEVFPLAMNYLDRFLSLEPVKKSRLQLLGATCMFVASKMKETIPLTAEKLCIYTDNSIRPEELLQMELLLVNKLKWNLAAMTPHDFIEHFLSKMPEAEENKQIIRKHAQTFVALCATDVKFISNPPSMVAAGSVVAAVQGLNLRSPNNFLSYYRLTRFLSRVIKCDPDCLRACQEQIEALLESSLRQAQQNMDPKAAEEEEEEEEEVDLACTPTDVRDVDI
- ASSAY COMMENT: CDK4/cyclin D1 enzymatic activity assay (TR-FRET, phosphorylation of pRb at Ser780)
- Assay type: biochemical
QUANTITY: IC50

MOLECULE	QUANTITY	RESULT
CN(C)C(=O)c1cc2cnc(Nc3ccc(N4CC5CCC(N5)C4=O)cn3)nc2n1C1CCCCCC1 (stereo not drawn)	IC50	0.012 to 0.014 µM
CN(C)C(=O)c1cc2cnc(Nc3ccc(N4CC5CNCC5C4=O)cn3)nc2n1C1CCCCCC1 (stereo not drawn)	IC50	< 0.005 µM
CN(C)C(=O)c1cc2cnc(Nc3ccc(C(=O)N4C5CCC4CNC5)cn3)nc2n1C1CCCC1	IC50	0.062 to 0.083 µM
CN(C)C(=O)c1cc2cnc(Nc3ccc(C(=O)N4CC5CCC(C4)N5)cn3)nc2n1[C@H]1CC[C@H](C(C)(C)C)CC1	IC50	0.005 to 0.006 µM
CN(C)C(=O)c1cc2cnc(Nc3ccc(N4CC5CCC(CC4=O)N5)nn3)nc2n1C1CCCC1 (stereo not drawn)	IC50	0.042 µM
CN(C)C(=O)c1cc2cnc(Nc3ccc(C(=O)N4CC5CCC(C4)N5)nn3)nc2n1C1CCCC1	IC50	0.045 to 0.084 µM
CN(C)C(=O)c1cc2cnc(Nc3ccc(C(=O)N4CC5CCC(C4)N5)cn3)nc2n1C1CCCC1	IC50	0.008 to 0.024 µM
CN(C)C(=O)c1cc2cnc(Nc3ccc(C(=O)N4CCC5COCC(C4)N5)cn3)nc2n1C1CCCC1 (stereo not drawn)	IC50	0.047 µM

Query for CDK4/cyclin D1 (Homo sapiens (Human), UniProt P11802): what IC50 does the record show for CN(C)C(=O)c1cc2cnc(Nc3ccc(N4CC5CCC(CC4=O)N5)cn3)nc2n1C1CCCC1 (stereo not drawn) ?
0.005 to 0.01 µM

---

Quick reference for pIC50 among some compounds
- STUDY SYSTEM: CDK4/cyclin D1 (Homo sapiens (Human))
- ASSAY COMMENT: CDK4/cyclin D1 enzymatic activity assay (TR-FRET, phosphorylation of pRb at Ser780)
- Format: biochemical
- CONDITION PARAMETERS: 0.3 nM CDK4/cyclin D1, 150 nM biotin-pRb (773-924), 3 μM ATP, 60 min at 22° C.; read-out: Biochemical CDK4 enzyme IC50
Give only the number. pIC50 is defined as minus log10 of concentration in molar units.

COMPOUND	QUANTITY	READOUT NUMBER
CN(C)C(=O)c1cc2cnc(Nc3ccc(C(=O)N4CC5CC5(N)C4)cn3)nc2n1C1CCCC1 (racemic)	pIC50	7.72

Please look at the following compound next.
Which pIC50 is reported for this compound? CC(=O)N1[C@@H]2CC[C@H]1CN(c1ccc(Nc3ncc4cc(C(=O)N(C)C)n(C5CCCC5)c4n3)nc1)C(=O)C2
6.94

---

- STUDY SYSTEM: CDK4/cyclin D1 (Homo sapiens (Human), UniProt P11802)
- ASSAY COMMENT: CDK4/cyclin D1 enzymatic activity assay (TR-FRET, phosphorylation of pRb at Ser780)
- Assay type: biochemical
- CONDITION PARAMETERS: 0.3 nM CDK4/cyclin D1, 150 nM biotin-pRb (773-924), 3 μM ATP, 60 min at 22° C.; read-out: Biochemical CDK4 enzyme IC50
Lab note: cut-off is 20 nM. Strictly less in IC50 is Criterion met. Exactly 20 nM or more is Criterion not met.

COMPOUND	LABEL CLASS
CN(C)C(=O)c1cc2cnc(Nc3ccc(C(=O)N4CC5CCC(C4)N5)cn3)nc2n1-c1ccc(C(C)(C)C)cc1 [Example 53]	Criterion met

IC50 strictly < 20 nM for this compound? CN(C)C(=O)c1cc2cnc(Nc3ccc(C(=O)N4C[C@@H]5C[C@]5(N)C4)cn3)nc2n1C1CCCC1 (stereo in doubt) [Example 15]
Criterion met

IC50 strictly < 20 nM for this compound? CN(C)C(=O)c1cc2cnc(Nc3ccc(N4CC5CC5(N)C4)cn3)nc2n1C1CCCC1 (stereo not shown) [Example 78]
Criterion not met

IC50 strictly < 20 nM for this compound? CC(C)N1[C@@H]2CC[C@H]1CN(c1ccc(Nc3ncc4cc(C(=O)N(C)C)n(C5CCCC5)c4n3)nc1)C(=O)C2 [Example 142]
Criterion not met

IC50 strictly < 20 nM for this compound? CN(C)C(=O)c1cc2cnc(Nc3ccc(C(=O)N4CC5CCC(C4)N5)cn3)nc2n1C1C[C@H]2CC[C@@H]1C2 (stereo partly shown) [Example 76]
Criterion not met

---

- Tested on: phosphorylation of pRb at the Ser780 site in JeKo-1 mantle cell lymphoma cells
- ASSAY COMMENT: CDK4 cellular assay: ELISA of pRb phosphorylation at Ser780 in JeKo-1 cells
- Type: cell-based
- CONDITION PARAMETERS: Homo sapiens; JeKo-1 cells, p-pRb % inhibition adjusted with total pRb levels; read-out: Normalized cellular ppRb inhibition IC50
QUANTITY: pIC50
Give only the number. pIC50 is defined as minus log10 of concentration in molar units.

MOLECULE	STUDY SYSTEM	READOUT NUMBER
CC(=O)N1C2CCC1CN(C(=O)c1ccc(Nc3ncc4cc(C(=O)N(C)C)n(C5CCCC5)c4n3)nc1)C2 [Example 27]	phosphorylation of pRb at the Ser780 site in JeKo-1 mantle cell lymphoma cells	6.70

Which pIC50 is reported for this molecule? CN(C)C(=O)c1cc2cnc(Nc3ccc(C(=O)N4CC5CCC(C4)N5C(=O)C4CCCN4)cn3)nc2n1C1CCCC1 (stereo not drawn) [Example 61]
7.28

---

- STUDY SYSTEM: CDK4/cyclin D1 (Homo sapiens (Human), UniProt P11802)
- ASSAY COMMENT: CDK4/cyclin D1 enzymatic activity assay (TR-FRET, phosphorylation of pRb at Ser780)
- Assay type: biochemical
- CONDITION PARAMETERS: 0.3 nM CDK4/cyclin D1, 150 nM biotin-pRb (773-924), 3 μM ATP, 60 min at 22° C.; read-out: Biochemical CDK4 enzyme IC50
Lab note: cut-off is 20 nM. Strictly less in IC50 is 1. Exactly 20 nM or more is 0.

Example results:
MOLECULE	STUDY SYSTEM	LABEL CLASS
CN(C)C(=O)c1cc2cnc(Nc3ccc(C(=O)N4CC5CCC(C4)N5)cn3)nc2n1[C@@H]1C[C@H]2CC[C@@H]1C2 (stereo in doubt) [Example 36]	CDK4/cyclin D1 (Homo sapiens (Human), UniProt P11802)	1
CN(C)C(=O)c1cc2cnc(Nc3ccc(N4C[C@H]5CC[C@@H](CC4=O)N5)cn3)nc2n1C1CCCC1 [Example 123]	CDK4/cyclin D1 (Homo sapiens (Human), UniProt P11802)	1
CN(C)C(=O)c1cc2cnc(Nc3ccc(C(=O)N4CC5COCC(C4)N5)cn3)nc2n1C1CCCC1 [Example 70]	CDK4/cyclin D1 (Homo sapiens (Human), UniProt P11802)	0
CN(C)C(=O)c1cc2cnc(Nc3ccc(C(=O)N4C[C@H]5C[C@@H]4CN5)cn3)nc2n1C1CCCC1 [Example 49]	CDK4/cyclin D1 (Homo sapiens (Human), UniProt P11802)	0
CN(C)C(=O)c1cc2cnc(Nc3ccc(N4CCN5CCC[C@@H]5C4=O)cn3)nc2n1C1CCCC1 [Example 147]	CDK4/cyclin D1 (Homo sapiens (Human), UniProt P11802)	0

IC50 strictly < 20 nM for this molecule? CN(C)C(=O)c1cc2cnc(Nc3ccc(C(=O)N4CC5CCC(C4)N5)cn3)nc2n1C1CCN(C(C)(C)C)CC1 [Example 57]
0

IC50 strictly < 20 nM for this molecule? CN1C[C@@H]2CC(=O)N(c3ccc(Nc4ncc5cc(C(=O)N(C)C)n(C6CCCCCC6)c5n4)nc3)C[C@@H]2C1 [Example 93]
1

IC50 strictly < 20 nM for this molecule? CN(C)C(=O)c1cc2cnc(Nc3ccc(C(=O)N4CC5CCC(C4)N5)cn3)nc2n1-c1cccc(C(C)(C)C)c1 [Example 54]
1

IC50 strictly < 20 nM for this molecule? CC(CO)N1C2CCC1CN(C(=O)c1ccc(Nc3ncc4cc(C(=O)N(C)C)n(C5CCCC5)c4n3)nc1)C2 (centres unmarked) [Example 35]
0
